molecular target: human Notch3-Gal4 chimeric receptor on U2OS FlpIn TREx cells (human, UniProt Q9UM47 40-2321); experiment: cell-based or functional assay
Measured quantity: hN3, inhibition of Luc activity at [166 nM] Mab

query: For A2780-C2-16 (antibody, human IgG1, lambda, V domains shown, full IgG1/lambda chains; name tied through the DNA section of Appendix IX (same order); also called B-000000397-000M) VH: EVQLVQSGAEVKKPGSSVKVSCKASGGTFSSFAFSWVRQAPGQGLDWMGRIIPILGRTNYAQKFQGRVTFTADTSTSTVYMELSSLSSEDTAVYYCARDREYSLSLGGSDYWGQGTLVTVSS VL: QAVLTQPSSVSGAPGQRVTISCIGSSSNIGAGYDVHWYRQPPGTAPQLLIYANTNRPSGVPDRFSGSRSGTSASLAITGIQAEDEADYYCQSYDSSLSGRVFGGGTKVTVLG , what is its reported hN3, inhibition of Luc activity at [166 nM] Mab?
result: < 15%
